Below, each entry is listed with its recorded XC50.
system: Plasmodium falciparum; assay: GSK_TCMDC: Inhibition of Plasmodium falciparum 3D7 in whole erythrocytes, using parasite LDH activity as an index of growth.; format: functional, organism-based; settings: Plasmodium falciparum, 3D7
# value in nM; strip the unit string

Cc1[nH]c(C)c(-c2ccc(CCc3ccc(F)cc3F)cc2)c(=O)c1Cl ... 15.9
Cc1ccc2c(c1)NCC21CCN(C[C@@H](O)C2CCN(c3cc(C#N)ccn3)CC2)CC1C (stereo not given in full) ... 606
COc1cc2nc(N3CCC(CNC(=O)/C=C/c4ccccc4F)CC3)nc(N)c2cc1OC ... 581
COC(=O)Nc1ccc(-c2ccc(C(=O)NC3CCN(C[C@H](O)c4ccnc5ccc(OC)cc45)CC3)cc2)c(C)c1 ... 685

# XC50 lookup, item Cc1cccc2nc(-c3cccc(-c4ccc(CNCc5ccccc5)cc4)c3)[nH]c12
148
